This listing pairs molecules with measured IC50.
MEASURED ON: UniProt Q9Y5Y9
ASSAY NOTES: SyncroPatch384PE assay (automated patch clamp)
Assay type: cell-based
REPORTED CONDITIONS: resting state block (P1 measurement), human Nav1.8/b3 CHO cells, read-out: P1 IC50
ENDPOINT NAME: IC50

molecule=Cc1c(-c2ccc(C#N)cc2)nnc(N2CCCC(F)(F)CC2)c1C(=O)Nc1cccc([S@](C)(=N)=O)c1 observed_result="0.05 to 0.1 µM"
molecule=Cc1c(-c2cnn(C)c2)ccc(N2CCCC(F)(F)CC2)c1C(=O)Nc1cccc([S@](C)(=N)=O)c1 observed_result="> 0.2 µM"
molecule=Cc1c(-c2cnn(C)c2)cnc(N2CCCC(F)(F)CC2)c1C(=O)Nc1cccc([S@@](C)(=O)=NC(=O)[C@@H](C)N)c1 observed_result="0.005 to 0.05 µM"
molecule=C[S@@](=N)(=O)c1cccc(NC(=O)c2cc(C(F)(F)F)nnc2N2CCCC(F)(F)CC2)c1 observed_result="> 0.2 µM"
molecule=Cc1nc(N2CCOCC2)nc(N2CCCC(F)(F)CC2)c1C(=O)Nc1cccc([S@](C)(=N)=O)c1 observed_result="> 0.2 µM"
molecule=Cc1c(-c2cnn(C)c2)cnc(N2CCCC(F)(F)CC2)c1C(=O)Nc1cccc([S@@](C)(=O)=NC(=O)[C@@H](C)O)c1 observed_result="0.005 to 0.05 µM"
molecule=Cc1c(C(F)(F)F)cnc(N2CCCC(F)(F)CC2)c1C(=O)Nc1cccc([S@@](C)(=O)=NC(=O)CO)c1 observed_result="≤ 0.005 µM"
molecule=Cc1c(C(F)(F)F)nnc(N2CCCCCC2)c1C(=O)Nc1cccc([S@@](C)(=N)=O)c1 observed_result="0.1 to 0.2 µM"
molecule=CNCC(=O)N=[S@](C)(=O)c1cccc(NC(=O)c2c(N3CCCC(F)(F)CC3)ncc(-c3ccc(Cl)cc3)c2C)c1 observed_result="≤ 0.005 µM"
molecule=Cc1nc(N2CCCC(F)(F)CC2)c(C(=O)Nc2cccc([S@](C)(=N)=O)c2)c(C)c1Br observed_result="≤ 0.005 µM"
molecule="Cc1ccc(-c2cnc(N3CCCC(F)(F)CC3)c(C(=O)Nc3cccc(S(C)(=N)=O)c3)c2C)cc1 (stereo not drawn)" observed_result="≤ 0.005 µM"
molecule=Cc1c(Cl)c(C(F)(F)F)nc(N2CCCC(F)(F)CC2)c1C(=O)Nc1cccc([S@@](C)(=N)=O)c1 observed_result="≤ 0.005 µM"
molecule="Cc1c(-c2cnn(C)c2)cnc(N2CCCC(F)(F)CC2)c1C(=O)Nc1cccc(S(=N)(N)=O)c1 (stereo not drawn)" observed_result="0.005 to 0.05 µM"
molecule=Cc1c(-c2cnco2)cnc(N2CCCC(F)(F)CC2)c1C(=O)Nc1cccc([S@](C)(=N)=O)c1 observed_result="0.005 to 0.05 µM"
molecule=Cc1c(-c2ccc(C#N)cc2)cnc(N2CCCC(F)(F)CC2)c1C(=O)NC12CC(C(N)=O)(C1)C2 observed_result="> 0.2 µM"
molecule=Cc1nc(N2CCC3(CC2)CC3)c(C(=O)Nc2cccc([S@](C)(=N)=O)c2)cc1Cl observed_result="≤ 0.005 µM"
molecule=Cc1c(C(F)(F)F)nnc(N2CCCC(F)(F)CC2)c1C(=O)Nc1cccc([S@](C)(=N)=O)c1 observed_result="0.005 to 0.05 µM"
molecule="Cc1c(C(F)(F)F)nnc(N2CCCCCC2)c1C(=O)Nc1cccc(S(C)(=N)=O)c1 (stereo not drawn)" observed_result="0.1 to 0.2 µM"

---

MEASURED ON: human Nav1.8 (Homo sapiens, UniProt Q9Y5Y9)
Sequence (Q9Y5Y9 whole entry): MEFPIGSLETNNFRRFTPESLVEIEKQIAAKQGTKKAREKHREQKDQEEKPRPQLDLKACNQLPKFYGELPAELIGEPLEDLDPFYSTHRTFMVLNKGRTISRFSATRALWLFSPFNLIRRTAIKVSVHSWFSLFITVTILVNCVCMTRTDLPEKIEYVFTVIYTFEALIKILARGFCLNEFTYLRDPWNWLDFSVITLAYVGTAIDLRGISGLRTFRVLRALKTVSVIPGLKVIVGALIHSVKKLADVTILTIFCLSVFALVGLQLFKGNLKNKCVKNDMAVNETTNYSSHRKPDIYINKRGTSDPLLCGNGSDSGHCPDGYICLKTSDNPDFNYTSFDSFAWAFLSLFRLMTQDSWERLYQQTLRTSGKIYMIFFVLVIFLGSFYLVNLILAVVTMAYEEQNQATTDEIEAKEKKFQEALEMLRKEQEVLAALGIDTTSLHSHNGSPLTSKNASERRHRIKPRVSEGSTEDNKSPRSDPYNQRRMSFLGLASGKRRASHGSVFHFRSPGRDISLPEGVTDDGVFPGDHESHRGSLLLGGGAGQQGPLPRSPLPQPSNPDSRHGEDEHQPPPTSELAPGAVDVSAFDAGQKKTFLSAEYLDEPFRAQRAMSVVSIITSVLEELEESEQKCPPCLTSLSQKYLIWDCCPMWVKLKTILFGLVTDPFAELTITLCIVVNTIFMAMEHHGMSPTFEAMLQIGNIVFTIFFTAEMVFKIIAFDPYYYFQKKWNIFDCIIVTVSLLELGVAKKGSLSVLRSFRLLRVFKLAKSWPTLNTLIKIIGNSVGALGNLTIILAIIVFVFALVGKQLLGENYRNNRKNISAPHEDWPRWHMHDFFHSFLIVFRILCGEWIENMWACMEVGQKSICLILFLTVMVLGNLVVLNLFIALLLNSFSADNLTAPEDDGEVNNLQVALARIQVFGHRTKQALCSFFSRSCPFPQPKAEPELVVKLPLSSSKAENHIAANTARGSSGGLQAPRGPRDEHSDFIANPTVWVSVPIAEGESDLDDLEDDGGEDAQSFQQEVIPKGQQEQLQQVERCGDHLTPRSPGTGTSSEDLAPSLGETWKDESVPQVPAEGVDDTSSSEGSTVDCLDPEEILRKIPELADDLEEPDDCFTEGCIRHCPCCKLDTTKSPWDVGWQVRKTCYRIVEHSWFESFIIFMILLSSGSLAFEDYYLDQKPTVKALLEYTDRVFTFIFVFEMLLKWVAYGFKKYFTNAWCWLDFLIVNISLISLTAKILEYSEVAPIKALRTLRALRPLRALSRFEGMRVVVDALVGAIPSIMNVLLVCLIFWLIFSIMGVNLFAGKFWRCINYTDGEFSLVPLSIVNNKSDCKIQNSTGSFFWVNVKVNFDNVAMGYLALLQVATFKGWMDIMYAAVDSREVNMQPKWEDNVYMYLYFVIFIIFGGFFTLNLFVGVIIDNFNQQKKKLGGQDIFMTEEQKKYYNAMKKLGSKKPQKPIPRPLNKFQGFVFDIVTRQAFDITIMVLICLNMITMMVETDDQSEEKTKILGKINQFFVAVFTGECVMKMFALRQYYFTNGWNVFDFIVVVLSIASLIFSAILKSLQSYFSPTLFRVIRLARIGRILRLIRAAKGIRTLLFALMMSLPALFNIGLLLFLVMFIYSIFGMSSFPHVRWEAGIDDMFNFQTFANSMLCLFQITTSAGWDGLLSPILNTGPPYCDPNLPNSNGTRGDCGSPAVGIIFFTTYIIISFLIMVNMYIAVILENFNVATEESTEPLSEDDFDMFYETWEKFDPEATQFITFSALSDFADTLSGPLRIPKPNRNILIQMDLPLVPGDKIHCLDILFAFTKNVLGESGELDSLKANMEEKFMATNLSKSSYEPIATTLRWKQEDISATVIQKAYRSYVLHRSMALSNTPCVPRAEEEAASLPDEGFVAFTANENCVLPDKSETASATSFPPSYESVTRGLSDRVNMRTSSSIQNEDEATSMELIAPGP
ASSAY NOTES: SyncroPatch384PE assay (automated patch clamp)
Assay type: cell-based
REPORTED CONDITIONS: inactivated state block (P2 measurement), human Nav1.8/b3 CHO cells, read-out: P2 IC50
ENDPOINT NAME: IC50

molecule="Cc1nc(N2CCCC(F)(F)CC2)c(C(=O)Nc2cccc([S@](C)(=N)=O)c2)cc1Cl [Example 16]" observed_result="≤ 5 nM"
molecule="Cc1c(N2CC3(COC3)C2)cnc(N2CCCC(F)(F)CC2)c1C(=O)Nc1cccc([S@](C)(=N)=O)c1 [Example 116]" observed_result="> 200 nM"
molecule="Cc1c(C(F)(F)F)cnc(N2CCCC(F)(F)CC2)c1C(=O)Nc1cccc([S@@](C)(=O)=NC(=O)C2(N)CCC2)c1 [Example 180]" observed_result="≤ 5 nM"
molecule="C[S@@](=N)(=O)c1cccc(NC(=O)c2cc(Cl)c(C(F)(F)F)cc2N2CCO[C@H](C(F)(F)F)C2)c1 [Example 215]" observed_result="5 to 50 nM"

---

MEASURED ON: human Nav1.8 (Homo sapiens, UniProt Q9Y5Y9)
ASSAY NOTES: SyncroPatch384PE assay (automated patch clamp)
Format: cell-based
REPORTED CONDITIONS: inactivated state block (P2 measurement), human Nav1.8/b3 CHO cells, read-out: P2 IC50
pIC50: −log10 of the molar value. Counter-ions that a name gives are not always drawn.
This listing pairs compounds with measured pIC50.
ENDPOINT NAME: pIC50

compound="CNCC(=O)N=[S@](C)(=O)c1cccc(NC(=O)c2c(N3CCCC(F)(F)CC3)ncc(-c3cc(F)cc(F)c3)c2C)c1 [Example 62]" measured_on="human Nav1.8 (Homo sapiens, UniProt Q9Y5Y9)" observed_result="≥ 8.30"
compound="Cc1c(C#N)c(C(F)(F)F)nc(N2CCCC(F)(F)CC2)c1C(=O)Nc1cccc([S@@](C)(=O)=NC(=O)C2CNC2)c1 [Example 57, formate]" measured_on="human Nav1.8 (Homo sapiens, UniProt Q9Y5Y9)" observed_result="≥ 8.30"
compound="C=CCCc1ccc(C(=O)Nc2cccc([S@](C)(=N)=O)c2)c(N2CCCC(F)(F)CC2)n1 [Example 35]" measured_on="human Nav1.8 (Homo sapiens, UniProt Q9Y5Y9)" observed_result="≥ 8.30"
compound="Cc1c(Br)cnc(N2CCCC(F)(F)CC2)c1C(=O)Nc1cccc([S@@](C)(=O)=NCCN)c1 [Example 209, 2,2,2-trifluoroacetate]" measured_on="human Nav1.8 (Homo sapiens, UniProt Q9Y5Y9)" observed_result="≥ 8.30"
compound="Cc1nc(N2CCC3(CC2)CC3)c(C(=O)Nc2cccc([S@@](C)(=N)=O)c2)cc1Cl [Example 27]" measured_on="human Nav1.8 (Homo sapiens, UniProt Q9Y5Y9)" observed_result="≥ 8.30"
compound="CS(=N)(=O)c1cccc(NC(=O)c2cc(C(F)(F)F)nnc2N2CCCC(F)(F)CC2)c1 (stereo not drawn) [Example 6]" measured_on="human Nav1.8 (Homo sapiens, UniProt Q9Y5Y9)" observed_result="7.30 to 8.30"
compound="Cc1c(-c2cnn(C)c2)cnc(N2CCCC(F)(F)CC2)c1C(=O)Nc1cccc([S@@](C)(=O)=NC(=O)C(C)(C)N)c1 [Example 52, formate]" measured_on="human Nav1.8 (Homo sapiens, UniProt Q9Y5Y9)" observed_result="7.30 to 8.30"
compound="CS(=O)(=O)c1cccc(NC(=O)c2nnc(C(F)(F)F)cc2N2CCCC(F)(F)CC2)c1 [Example 39]" measured_on="human Nav1.8 (Homo sapiens, UniProt Q9Y5Y9)" observed_result="< 6.70"
compound="CS(=N)(=O)c1cccc(NC(=O)c2cc(C(F)(F)F)nnc2N2CCCCCC2)c1 (stereo not drawn) [Example 1]" measured_on="human Nav1.8 (Homo sapiens, UniProt Q9Y5Y9)" observed_result="< 6.70"

---

MEASURED ON: human Nav1.8 (Homo sapiens, UniProt Q9Y5Y9)
ASSAY NOTES: SyncroPatch384PE assay (automated patch clamp)
Format: cell-based
REPORTED CONDITIONS: inactivated state block (P2 measurement), human Nav1.8/b3 CHO cells, read-out: P2 IC50
ENDPOINT NAME: IC50

chemical_smiles=Cc1cc(-c2cnn(C)c2)nc(N2CCCC(F)(F)CC2)c1C(=O)Nc1cccc([S@](C)(=N)=O)c1 observed_result="100 to 200 nM"
chemical_smiles=Cc1c(C(F)(F)F)ncc(N2CCCC(F)(F)CC2)c1C(=O)Nc1cccc([S@](C)(=N)=O)c1 observed_result="50 to 100 nM"
chemical_smiles=Cc1c(C#N)cnc(N2CCCC(F)(F)CC2)c1C(=O)Nc1cccc([S@](C)(=N)=O)c1 observed_result="5 to 50 nM"

---

MEASURED ON: human Nav1.8 (Homo sapiens, UniProt Q9Y5Y9)
ASSAY NOTES: SyncroPatch384PE assay (automated patch clamp)
Format: cell-based
REPORTED CONDITIONS: resting state block (P1 measurement), human Nav1.8/b3 CHO cells, read-out: P1 IC50
pIC50: −log10 of the molar value.
ENDPOINT NAME: pIC50

compound=Cc1cc(C#N)nc(N2CCCC(F)(F)CC2)c1C(=O)Nc1cccc([S@](C)(=N)=O)c1 measured_on="human Nav1.8 (Homo sapiens, UniProt Q9Y5Y9)" endpoint_name=pIC50 observed_result="7.30 to 8.30"
compound="Cc1c(Cl)c(C(F)(F)F)nc(N2CCCC(F)(F)CC2)c1C(=O)Nc1cccc(S(C)(=N)=O)c1 (stereo not shown)" measured_on="human Nav1.8 (Homo sapiens, UniProt Q9Y5Y9)" endpoint_name=pIC50 observed_result="≥ 8.30"
compound=Cc1c(C(F)(F)F)cnc(N2CCCC(F)(F)CC2)c1C(=O)Nc1cccc([S@@](C)(=O)=NC(=O)[C@H](C)O)c1 measured_on="human Nav1.8 (Homo sapiens, UniProt Q9Y5Y9)" endpoint_name=pIC50 observed_result="≥ 8.30"
compound=C[S@+]([O-])c1cc(NC(=O)c2cc(Cl)c(C(F)(F)F)cc2N2CCCC(F)(F)CC2)ccc1F measured_on="human Nav1.8 (Homo sapiens, UniProt Q9Y5Y9)" endpoint_name=pIC50 observed_result="≥ 8.30"
compound="CS(=N)(=O)c1cc(NC(=O)c2cc(C(F)(F)F)nnc2N2CCCCCC2)ccn1 (stereo not shown)" measured_on="human Nav1.8 (Homo sapiens, UniProt Q9Y5Y9)" endpoint_name=pIC50 observed_result="< 6.70"
compound="Cc1c(-c2ccccc2)cnc(N2CCCC(F)(F)CC2)c1C(=O)Nc1cccc(S(C)(=N)=O)c1 (stereo not shown)" measured_on="human Nav1.8 (Homo sapiens, UniProt Q9Y5Y9)" endpoint_name=pIC50 observed_result="≥ 8.30"
compound=Cc1c(C(F)(F)F)cnc(N2CCCC(F)(F)CC2)c1C(=O)Nc1cccc([S@@](C)(=O)=NC(=O)C(C)(C)N)c1 measured_on="human Nav1.8 (Homo sapiens, UniProt Q9Y5Y9)" endpoint_name=pIC50 observed_result="≥ 8.30"
compound=Cc1c(-c2cccc(F)c2)cnc(N2CCCC(F)(F)CC2)c1C(=O)Nc1cccc([S@@](C)(=N)=O)c1 measured_on="human Nav1.8 (Homo sapiens, UniProt Q9Y5Y9)" endpoint_name=pIC50 observed_result="≥ 8.30"
compound=CNCC(=O)N=[S@](C)(=O)c1cccc(NC(=O)c2c(N3CCCC(F)(F)CC3)ccc(-c3cnn(C)c3)c2C)c1 measured_on="human Nav1.8 (Homo sapiens, UniProt Q9Y5Y9)" endpoint_name=pIC50 observed_result="7.30 to 8.30"
compound="Cc1c(-c2cccc(F)c2)cnc(N2CCCC(F)(F)CC2)c1C(=O)Nc1cccc(S(C)(=N)=O)c1 (stereo not shown)" measured_on="human Nav1.8 (Homo sapiens, UniProt Q9Y5Y9)" endpoint_name=pIC50 observed_result="≥ 8.30"
compound="Cc1c(-c2ccc(C#N)cc2)cnc(N2CCCC(F)(F)CC2)c1C(=O)Nc1cccc(S(C)(=N)=O)c1 (stereo not shown)" measured_on="human Nav1.8 (Homo sapiens, UniProt Q9Y5Y9)" endpoint_name=pIC50 observed_result="≥ 8.30"
compound=Cc1nc(N2CCN(C)CC2)nc(N2CCCC(F)(F)CC2)c1C(=O)Nc1cccc([S@](C)(=N)=O)c1 measured_on="human Nav1.8 (Homo sapiens, UniProt Q9Y5Y9)" endpoint_name=pIC50 observed_result="< 6.70"
compound="Cc1c(C(F)(F)F)nnc(N2CCC3(CC2)CC3)c1C(=O)Nc1cccc(S(C)(=N)=O)c1 (stereo not shown)" measured_on="human Nav1.8 (Homo sapiens, UniProt Q9Y5Y9)" endpoint_name=pIC50 observed_result="< 6.70"
compound="COc1ccc(-c2cnc(N3CCCC(F)(F)CC3)c(C(=O)Nc3cccc(S(C)(=N)=O)c3)c2C)cc1 (stereo not shown)" measured_on="human Nav1.8 (Homo sapiens, UniProt Q9Y5Y9)" endpoint_name=pIC50 observed_result="≥ 8.30"
compound=Cc1c(-c2cnn(C)c2)cnc(N2CCCC(F)(F)CC2)c1C(=O)Nc1cccc([S@@](C)(=O)=NC(=O)CO)c1 measured_on="human Nav1.8 (Homo sapiens, UniProt Q9Y5Y9)" endpoint_name=pIC50 observed_result="7.30 to 8.30"
compound="Cc1c(C2CNC2)cnc(N2CCCC(F)(F)CC2)c1C(=O)Nc1cccc(S(C)(=N)=O)c1 (stereo not shown)" measured_on="human Nav1.8 (Homo sapiens, UniProt Q9Y5Y9)" endpoint_name=pIC50 observed_result="< 6.70"
compound=Cc1c(C(F)(F)F)nnc(N2CCCCCC2)c1C(=O)Nc1cccc([S@](C)(=N)=O)c1 measured_on="human Nav1.8 (Homo sapiens, UniProt Q9Y5Y9)" endpoint_name=pIC50 observed_result="7.00 to 7.30"
compound="Cc1c(Br)cnc(N2CCCC(F)(F)CC2)c1C(=O)Nc1cccc([S@@](C)(=O)=NCCN)c1 [Example 209, 2,2,2-trifluoroacetate]" measured_on="human Nav1.8 (Homo sapiens, UniProt Q9Y5Y9)" endpoint_name=pIC50 observed_result="≥ 8.30"
compound="CS(=N)(=O)c1cccc(NC(=O)c2ccc(CC3CC3)nc2N2CCC3(CC2)CC3)c1 (stereo not shown)" measured_on="human Nav1.8 (Homo sapiens, UniProt Q9Y5Y9)" endpoint_name=pIC50 observed_result="7.30 to 8.30"
